Molecular target: Prostaglandin D2 receptor 2 (Homo sapiens, UniProt Q9Y5Y4)
Sequence (Q9Y5Y4 whole entry): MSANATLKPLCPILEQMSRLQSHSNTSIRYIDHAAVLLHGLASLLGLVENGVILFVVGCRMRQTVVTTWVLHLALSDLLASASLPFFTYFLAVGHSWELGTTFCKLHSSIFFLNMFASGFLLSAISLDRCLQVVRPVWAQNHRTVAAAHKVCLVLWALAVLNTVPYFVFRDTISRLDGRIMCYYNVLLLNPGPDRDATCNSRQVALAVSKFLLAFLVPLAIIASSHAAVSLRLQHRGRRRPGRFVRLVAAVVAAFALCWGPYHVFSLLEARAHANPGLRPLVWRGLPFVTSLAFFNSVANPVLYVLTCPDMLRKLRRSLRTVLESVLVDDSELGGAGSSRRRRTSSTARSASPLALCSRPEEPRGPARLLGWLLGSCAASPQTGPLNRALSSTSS
Assay: Antagonistic activity at CRTH2 in human eosinophils assessed as inhibition of PGD2-induced calcium mobilization after 60 mins by Fluo-3 based fluorescence assay
Assay type: functional
measure name: Ki (nM)
Give a bare numeral; the unit nM is implied.

Example compounds with recorded Ki:
smiles repr	Ki (nM)
Cc1c(Cc2ccc3ccccc3c2)c2cc(F)ccc2n1CC(=O)O	15
Cc1c(CC(=O)O)c2cc(F)ccc2n1Cc1nc2ccccc2s1	44

Give reported Ki value for Cc1c(CC(=O)O)c2cc(F)ccc2n1Cc1ccc2ccccc2c1
9

====

Target: Prostaglandin D2 receptor 2 (Homo sapiens)
Test: Displacement of [3H]PGD2 from CRTH2 expressed in CHO cells after 1 hr by beta counting analysis
Assay type: cell-based
measure name: Ki (nM)
Give a bare numeral; the unit nM is implied.

Give reported Ki value for Cc1c(Sc2ccc(Cl)cc2)c2ncccc2n1CC(=O)O
143

====

Biological target: Prostaglandin D2 receptor 2 (Homo sapiens, UniProt Q9Y5Y4)
Assay: Displacement of [3H]PGD2 from human CRTH2 expressed in K562 cells after 60 mins by scintillation counting
Assay type: cell-based
measure name: Ki (nM)
Give a bare numeral; the unit nM is implied.

smiles repr	system	numeric readout
Cc1cc(CC(=O)O)c2c(C)c(Cc3ccccc3)c(=O)oc2c1	Prostaglandin D2 receptor 2 (Homo sapiens, UniProt Q9Y5Y4)	32

For the next question, use this compound.
Give reported Ki value for CCc1nc2c(F)ccc(OCC(=O)O)c2c(OC(F)F)c1Cc1ccc(-n2cccn2)cc1
5.4

====

In this section we review reported IC50 values for a set of compounds.
Molecular target: Prostaglandin D2 receptor 2 (Homo sapiens)
Assay: Displacement of [3H]PGD2 from human CRTH2 expressed in HEK293 cells after 90 mins by TopCount analysis
Assay type: cell-based
Give a bare numeral; the unit nM is implied.

Report IC50 on Prostaglandin D2 receptor 2 (Homo sapiens) for this entry: CN(C(=O)C1(C)CCc2c(c3ccccc3n2CC(=O)O)C1)c1cccc(Cl)c1 (configuration not stated)
1

Report IC50 on Prostaglandin D2 receptor 2 (Homo sapiens) for this entry: O=C(O)Cn1c2c(c3cc(F)ccc31)C[C@H](NC(=O)CC(c1ccccc1)c1ccccc1)CC2
2

====

Experiment: in vivo
Settings: rat
measure name: half-life (h)
Give a bare numeral; the unit h is implied.

Give reported half-life value for Cc1c(Cc2ccc3ccccc3n2)c2cc(F)ccc2n1CC(=O)O
3.5

====

In this section we review reported pIC50 values for a set of compounds.
Molecular target: Prostaglandin D2 receptor 2 (Homo sapiens, UniProt Q9Y5Y4)
Just the number, please; pIC50 means minus log10 of the concentration in mol/L.

smiles repr	numeric readout
C[C@H]1C[C@@H](N(C(=O)CCC(=O)O)c2ccccc2)c2ccccc2N1C(=O)c1ccccc1	9.11
Cc1c(CC(=O)O)c2cc(F)ccc2n1Cc1nc2ccccc2s1	5.62
Cc1c(CC(=O)O)c2cc(F)ccc2n1S(=O)(=O)c1ccc(S(C)(=O)=O)cc1	6.97
Cc1c(Cc2nc3ccccc3s2)c2cc(F)ccc2n1CC(=O)O	6.46
CCN(Cc1cc(C(F)(F)F)ccc1-c1cc(CC(=O)O)ccc1OC)C(=O)C1CC1	8.19
Cc1c(Cc2ccc(S(C)(=O)=O)cc2)c2cc(F)ccc2n1CC(=O)O	8.10

Give reported pIC50 value for Cc1c(Cc2ccc3ccccc3c2)c2cc(F)ccc2n1CC(=O)O
6.09

====

Target: Sodium-dependent serotonin transporter (Homo sapiens)
Sequence (P31645 whole entry): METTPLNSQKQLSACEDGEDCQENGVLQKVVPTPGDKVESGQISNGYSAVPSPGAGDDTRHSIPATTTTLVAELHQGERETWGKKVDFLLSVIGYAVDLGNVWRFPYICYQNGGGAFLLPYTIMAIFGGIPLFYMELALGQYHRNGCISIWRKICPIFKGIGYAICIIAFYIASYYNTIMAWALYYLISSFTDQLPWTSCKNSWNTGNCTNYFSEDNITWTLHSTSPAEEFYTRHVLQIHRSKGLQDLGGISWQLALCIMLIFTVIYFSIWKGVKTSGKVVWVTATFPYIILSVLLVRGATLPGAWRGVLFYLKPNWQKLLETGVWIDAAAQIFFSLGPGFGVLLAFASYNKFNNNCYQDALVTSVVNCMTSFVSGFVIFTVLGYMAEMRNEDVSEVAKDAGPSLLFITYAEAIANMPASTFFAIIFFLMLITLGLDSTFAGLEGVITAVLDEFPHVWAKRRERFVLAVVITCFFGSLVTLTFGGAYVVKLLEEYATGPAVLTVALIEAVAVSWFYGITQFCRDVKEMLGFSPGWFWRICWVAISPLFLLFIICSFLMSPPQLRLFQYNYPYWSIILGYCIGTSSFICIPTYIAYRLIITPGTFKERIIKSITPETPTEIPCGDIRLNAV
measure name: IC50 (nM)
Give a bare numeral; the unit nM is implied.

Report IC50 on Sodium-dependent serotonin transporter (Homo sapiens) for this entry: Cc1ccc2c(c1)c(-c1ccnc3c(C)cccc13)c(C)n2CC(=O)O
2000

====

The reader will find Ki measurements below, all made with Prostaglandin D2 receptor 2 (Homo sapiens, UniProt Q9Y5Y4).
Give a bare numeral; the unit nM is implied.

smiles repr	measure name	scale unit	numeric readout
Cc1c(Sc2ccc(Cl)cc2)c2c(Cl)nccc2n1CC(=O)O	Ki	nM	58

Give reported Ki value for Cc1c(Sc2ccc(Cl)cc2)c2cc(Cl)ncc2n1CC(=O)O
106

Give reported Ki value for CCN(Cc1cc(C(F)(F)F)ccc1-c1cc(CC(=O)O)ccc1OC)C(=O)C1CC1
13.5

Give reported Ki value for CCc1c(CC(=O)O)c(C2CC2)nn1Cc1ccc(NC(=O)c2ccc(C(F)(F)F)cc2)cc1
0.5

====

Biological target: Aldo-keto reductase family 1 member B1 (Rattus norvegicus)
measure name: pIC50
Just the number, please; pIC50 means minus log10 of the concentration in mol/L.

Report pIC50 on Aldo-keto reductase family 1 member B1 (Rattus norvegicus) for this entry: Cc1c(Cc2ccc3ccccc3n2)c2cc(F)ccc2n1CC(=O)O
6.26
